Would you kindly list glycan array binding signal (z-score) for each of these binders?
biological target: Neu5Ac(a2-6)Gal(b1-4)GlcNAc(b1-3)Gal(b1-4)GlcNAc(b1-6)[Gal(b1-3)]GalNAc; assay: glycan array binding signal (z-score within array); higher = stronger binding; conditions: glycan notation: IUPAC condensed, linker removed
Shown is part of a subset that was picked to be rich in the strongest signals.
// no unit, no text: just the number

query: Requested read-out: glycan array binding signal (z-score). Entry: Nc3LysM (protein) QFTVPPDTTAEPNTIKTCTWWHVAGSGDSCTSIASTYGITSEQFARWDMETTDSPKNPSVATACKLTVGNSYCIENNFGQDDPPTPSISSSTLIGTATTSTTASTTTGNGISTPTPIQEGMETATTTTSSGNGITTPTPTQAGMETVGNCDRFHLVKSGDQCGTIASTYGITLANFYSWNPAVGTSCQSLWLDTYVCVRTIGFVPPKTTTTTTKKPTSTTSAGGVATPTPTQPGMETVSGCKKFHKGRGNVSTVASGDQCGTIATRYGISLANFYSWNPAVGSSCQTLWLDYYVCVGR
result: -0.099

query: Requested read-out: glycan array binding signal (z-score). Entry: UEA-I (Ulex europaeus), P22972 (protein) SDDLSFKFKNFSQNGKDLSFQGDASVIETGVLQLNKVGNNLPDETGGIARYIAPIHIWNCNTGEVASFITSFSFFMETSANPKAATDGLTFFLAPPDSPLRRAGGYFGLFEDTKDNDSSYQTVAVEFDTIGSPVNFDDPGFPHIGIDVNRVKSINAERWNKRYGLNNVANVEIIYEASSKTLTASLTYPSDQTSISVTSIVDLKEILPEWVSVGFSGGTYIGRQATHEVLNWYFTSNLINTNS
result: -0.032

query: Requested read-out: glycan array binding signal (z-score). Entry: EULS2 M1 (Oryza sativa) (protein) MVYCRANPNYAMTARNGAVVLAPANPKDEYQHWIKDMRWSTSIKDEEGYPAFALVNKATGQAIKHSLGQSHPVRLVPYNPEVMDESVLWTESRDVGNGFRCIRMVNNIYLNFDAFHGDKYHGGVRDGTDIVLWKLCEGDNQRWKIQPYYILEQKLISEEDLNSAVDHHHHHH
result: 0.283

query: Requested read-out: glycan array binding signal (z-score). Entry: LICBM33A (Lactococcus lactis), Q9CE94 (protein) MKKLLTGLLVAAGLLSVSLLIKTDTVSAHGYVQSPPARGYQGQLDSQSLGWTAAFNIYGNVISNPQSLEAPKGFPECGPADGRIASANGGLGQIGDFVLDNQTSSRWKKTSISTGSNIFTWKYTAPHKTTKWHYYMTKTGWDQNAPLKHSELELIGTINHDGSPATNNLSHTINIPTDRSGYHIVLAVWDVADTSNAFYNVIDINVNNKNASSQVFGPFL
result: -0.512

query: Requested read-out: glycan array binding signal (z-score). Entry: ArathEULS3 TAP (Arabidopsis thaliana) (protein) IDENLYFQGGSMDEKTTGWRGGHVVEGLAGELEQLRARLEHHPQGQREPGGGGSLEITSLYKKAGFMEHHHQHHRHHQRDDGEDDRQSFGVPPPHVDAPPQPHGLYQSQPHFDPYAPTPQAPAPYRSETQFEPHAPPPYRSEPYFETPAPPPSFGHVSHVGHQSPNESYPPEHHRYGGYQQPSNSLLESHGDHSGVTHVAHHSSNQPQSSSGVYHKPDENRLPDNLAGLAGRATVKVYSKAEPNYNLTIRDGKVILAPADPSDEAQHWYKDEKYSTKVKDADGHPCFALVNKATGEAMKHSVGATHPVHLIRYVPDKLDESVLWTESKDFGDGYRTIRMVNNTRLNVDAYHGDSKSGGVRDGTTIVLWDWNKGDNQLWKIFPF
result: -0.634
